// provenance: patent US20260132197A1

koff listing for selected binders.
target: T1, wild type human CD47 (Acro Biosystems, cat. no. CD7-H5227) (human, UniProt Q08722 19-139); experiment: SPR, IgG captured, CD47 in flow; exp 3;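 note: other target is a CD47 mutein carrying C33G, used to obtain true monovalent affinity, with kon and koff fitted from SPR binding curves and KD derived from both rates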
T1 construct: Bought protein used as SPR analyte; also called Human CD47 wt; wild-type CD47
T1 sequence (Q08722 19-139 limits assumed): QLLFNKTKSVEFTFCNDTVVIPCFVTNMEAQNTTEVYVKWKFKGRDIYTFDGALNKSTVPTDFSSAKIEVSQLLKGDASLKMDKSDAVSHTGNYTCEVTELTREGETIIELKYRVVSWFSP
endpoint_name: koff

1) 108VH4.M4-VL1.M1 (antibody, V domains shown, also called original humanized 108C10A6 antibody) VH: EVQLVQSGAEVKKPGSSVKVSCKASGYSFTHHWIHWVRQAPGQGLEWMGMIDASDSETRLSQKFKDRVTITADKSTSTAYMELSSLRSEDTAVYYCARLGRYYFDYWGQGTTVTVSS VL: EIVLTQSPATLSLSPGERATLSCRASENVGTYISWYQQKPGQAPRLLIYGASNRYTGIPARFSGSGSGTDFTLTISSLEPEDFAVYYCGESYGHLYTFGGGTKVEIK: 0.00041 s⁻¹
2) 108VH10.Ml / 108VL10.Me (antibody, V domains shown, 4D5-framework series; constant regions not restated for this series; also called VH10.Ml VL10.Me) VH: EVQLVESGGGLVQPGGSLRLSCAASGFTFSHHWIHWVRQAPGKGLEWVAMIDASDSETRLSQKFKGRFTISADTSKNTAYLQMNSLRAEDTAVYYCSRLGRYYFDYWGQGTLVTVSS VL: DIQMTQSPSSLSASVGDRVTITCRASQSISSYLNWYQQKPGKAPKLLIYGASSRYSGVPSRFSGSRSGTDFTLTISSLQPEDFATYYCGESYGHLYTFGQGTKVEIK: 0.0034 s⁻¹
3) 108VH10.Mg / 108VL10.Me (antibody, V domains shown, 4D5-framework series; constant regions not restated for this series; also called VH10.Mg VL10.Me) VH: EVQLVESGGGLVQPGGSLRLSCAASGFTFSHHWIHWVRQAPGKGLEWVAMIDASDSETRLSQKFKDRFTISADTSKNTAYLQMNSLRAEDTAVYYCSRLGRYYFDYWGQGTLVTVSS VL: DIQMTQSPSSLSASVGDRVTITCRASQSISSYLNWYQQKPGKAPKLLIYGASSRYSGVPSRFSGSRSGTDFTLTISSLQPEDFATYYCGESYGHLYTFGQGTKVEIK: 0.0032 s⁻¹
